Cited source for all entries: the supplement of paper PMC11780869

Would you mind telling me the reported cleaved RNA product abundance of each entry?
# Tested on: Bacillus subtilis
# assayRemarks: cleaved RNA product abundance (RNA/gDNA barcode ratio) relative to median wild-type variant (ratio to wild type); higher = more accumulation of the downstream cleavage product
# conditionSummary: experiment (reporter, strain, medium): exp 4a: truncated aprE reporter, strain BJT201 with 2% xylose (RNase J1 expressed); cleavage site: cggR-gapA (positions -7 to +36 mutated)
Answers are plain numbers.

Prompt line: So what's the measured cleaved RNA product abundance for this one? ACAGACGAAGGAGCCGCAAAGAAGTTATTAAGGCATGAATAATCCCTCAATATAATTATCTCTCACTTATTTAAA
Response line: 0.095

Please give cleaved RNA product abundance for each item listed below.
1. ACAGACGAAGGAGCCGCAAAGAAGTTATTAAGGGATCAATGATCCCTCAATATAAATATCTCTCACTTATTTAAA
2. ACAGACGAAGGAGCCGCAAAGAAGTTATTAAGGGATGAATAATCACTTAATATAAATATCTCTCACTTATTTAAA
3. ACAGACGAAGGAGCCGCATAGAAGTTATTAAGGGATGAATACTCCCTCAATATAAATATCTCTCACTTATTTAAA

Response line:
[1.15, 0.498, 0.618]
